From: ChEMBL document CHEMBL4665656

- procedure.summary: Induction of H2S generation assessed as half life at 150 uM incubated at 22 degC and pH 5 by fluorescence spectrophotometry
- Format: functional
Please note: met applies when T1/2 is 4 min or greater, and not met applies otherwise.

Task: Could you tell me if the measured T1/2 of CC(C)[C@H](NP(O)(=S)c1ccccc1)C(=O)O (stereo partly specified) reaches 4 min or more?
Result: not met

Task: Could you tell me if the measured T1/2 of C[C@H](NP(O)(=S)c1ccccc1)C(=O)O (stereo partly specified) reaches 4 min or more?
Result: not met

Task: Could you tell me if the measured T1/2 of CC[C@H](C)[C@H](NP(O)(=S)c1ccccc1)C(=O)O (stereo partly specified) reaches 4 min or more?
Result: not met

Task: Could you tell me if the measured T1/2 of S=P1(c2ccccc2)NCCCN1 reaches 4 min or more?
Result: met

Task: Could you tell me if the measured T1/2 of S=P1(c2ccccc2)OCCCO1 reaches 4 min or more?
Result: met

Task: Could you tell me if the measured T1/2 of S=P1(c2ccccc2)NCCN1 reaches 4 min or more?
Result: met

Task: Could you tell me if the measured T1/2 of S=P1(c2ccccc2)OCC2CCCN21 (stereo unspecified) reaches 4 min or more?
Result: met

Task: Could you tell me if the measured T1/2 of CSCC[C@H](NP(O)(=S)c1ccccc1)C(=O)O (stereo partly specified) reaches 4 min or more?
Result: not met

Task: Could you tell me if the measured T1/2 of S=P1(c2ccccc2)NCCCO1 (stereo unspecified) reaches 4 min or more?
Result: met

Task: Could you tell me if the measured T1/2 of S=P1(c2ccccc2)OCCO1 reaches 4 min or more?
Result: met

Task: Could you tell me if the measured T1/2 of S=P1(c2ccccc2)NCCO1 (stereo unspecified) reaches 4 min or more?
Result: met

Task: Could you tell me if the measured T1/2 of O=C(O)[C@@H]1CCCN1P(O)(=S)c1ccccc1 (stereo partly specified) reaches 4 min or more?
Result: met

Task: Could you tell me if the measured T1/2 of O=C(O)[C@H](Cc1ccccc1)NP(O)(=S)c1ccccc1 (stereo partly specified) reaches 4 min or more?
Result: not met

Task: Could you tell me if the measured T1/2 of O=C([O-])CNP([O-])(=S)c1ccccc1.[Li+].[Li+] (stereo unspecified) reaches 4 min or more?
Result: not met

Task: Could you tell me if the measured T1/2 of CC(C)C[C@H](NP(O)(=S)c1ccccc1)C(=O)O (stereo partly specified) reaches 4 min or more?
Result: not met

Task: Could you tell me if the measured T1/2 of O=C([O-])[C@H](Cc1cc2ccccc2[nH]1)NP([O-])(=S)c1ccccc1.[Li+].[Li+] (stereo partly specified) reaches 4 min or more?
Result: not met

* * *

- Tested on: HeLa
- procedure.summary: Cytotoxicity in human HeLa cells assessed as growth inhibition incubated for 24 hrs by MTT assay
- Type: functional, cell-based
Provide the reported pIC50 of each item.
In simple prose, pIC50 is minus the logarithm base ten of a concentration in moles per litre.

Task: pIC50 for CC(C)C[C@H](NP(O)(=S)c1ccccc1)C(=O)O (some centres not stated) ?
Result: 3.08

Task: pIC50 for S=P1(c2ccccc2)OCCCO1 ?
Result: 2.89

Task: pIC50 for S=P1(c2ccccc2)NCCCO1 (configuration not stated) ?
Result: 3.08

Task: pIC50 for S=P1(c2ccccc2)OCC2CCCN21 (configuration not stated) ?
Result: 3.01

Task: pIC50 for CC[C@H](C)[C@H](NP(O)(=S)c1ccccc1)C(=O)O (some centres not stated) ?
Result: 3.01

Task: pIC50 for S=P1(c2ccccc2)NCCCN1 ?
Result: 3.10

Task: pIC50 for S=P1(c2ccccc2)OCCO1 ?
Result: 3.17

Task: pIC50 for O=C(O)[C@H](Cc1ccccc1)NP(O)(=S)c1ccccc1 (some centres not stated) ?
Result: 3.15

Task: pIC50 for O=c1[nH]cc(F)c(=O)[nH]1 [FLUOROURACIL] ?
Result: 3.92

Task: pIC50 for CC(C)[C@H](NP(O)(=S)c1ccccc1)C(=O)O (some centres not stated) ?
Result: 3.09

Task: pIC50 for C[C@H](NP(O)(=S)c1ccccc1)C(=O)O (some centres not stated) ?
Result: 3.05

Task: pIC50 for O=C([O-])CNP([O-])(=S)c1ccccc1.[Li+].[Li+] (configuration not stated) ?
Result: 3.04

Task: pIC50 for S=P1(c2ccccc2)NCCN1 ?
Result: 3.01

Task: pIC50 for CSCC[C@H](NP(O)(=S)c1ccccc1)C(=O)O (some centres not stated) ?
Result: 3.04

Task: pIC50 for S=P1(c2ccccc2)NCCO1 (configuration not stated) ?
Result: 3.03

Task: pIC50 for O=C(O)[C@@H]1CCCN1P(O)(=S)c1ccccc1 (some centres not stated) ?
Result: 3.08

Task: pIC50 for O=C([O-])[C@H](Cc1cc2ccccc2[nH]1)NP([O-])(=S)c1ccccc1.[Li+].[Li+] (some centres not stated) ?
Result: 3.15
